biological target: Cannabinoid receptor 2 (Homo sapiens, UniProt P34972); assay: Agonist activity at human CB2 receptor expressing CHO cells co-expressing Galpha16 by calcium mobilization assay; assay type: functional, cell-based
Sequence (P34972 whole entry): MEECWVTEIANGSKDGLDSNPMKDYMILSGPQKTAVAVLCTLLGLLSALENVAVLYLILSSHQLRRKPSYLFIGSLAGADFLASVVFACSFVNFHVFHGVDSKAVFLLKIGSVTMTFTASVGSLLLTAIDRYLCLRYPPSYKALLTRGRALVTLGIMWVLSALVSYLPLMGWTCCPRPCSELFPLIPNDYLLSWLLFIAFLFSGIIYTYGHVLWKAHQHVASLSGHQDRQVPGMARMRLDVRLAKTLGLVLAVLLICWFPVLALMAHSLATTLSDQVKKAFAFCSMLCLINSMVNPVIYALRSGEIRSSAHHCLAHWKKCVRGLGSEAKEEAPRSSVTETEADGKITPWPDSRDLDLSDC
Consider the reported EC50 of an entry and match it to a band in low value = under 40 nM, medium value = from 40 nM up to 700 nM, high value = 700 nM and over

Observe how each entry below is paired with its result.
INSERT INTO results (structurenotation, assignedlabel) VALUES
  ('CC(C)(CO)NC(=O)c1cc(C(C)(C)C)n(-c2ccc(C(F)(F)F)cc2)n1', 'high value'),
  ('CC(C)(CO)NC(=O)c1cc(C(C)(C)C)n(CC2CC2)n1', 'medium value'),
  ('CCCCCn1nc(C(=O)NC(C)(C)CO)cc1CC(C)(C)C', 'low value'),
  ('CC(C)(CO)NC(=O)c1cc(C(C)(C)C)n(CCCCF)n1', 'medium value'),
  ('CCCCCn1nc(C(=O)N[C@H](C(=O)OC)C(C)C)cc1C(C)(C)C', 'low value');

Query block: Each compound maps to one class by EC50. Which class for "CCCCCn1nc(C(=O)NC(C)(C)CO)cc1C(C)C" ?
Result block: low value

Query block: In plain terms, what class is "CCCCCn1nc(C(=O)NC(C)(C)CO)c([N+](=O)[O-])c1C(C)(C)C" ?
Result block: low value

Query block: For this compound, which bin applies? "CCCCCn1nc(C(C)(C)C)cc1C(=O)NC12CC3CC(CC(O)(C3)C1)C2"
Result block: high value

* * *

molecular target: Cannabinoid receptor 1 (Homo sapiens); experiment: Agonist activity at human CB1 receptor expressing CHO cells co-expressing Galpha16 by calcium mobilization assay relative to CP55940; assay type: functional, cell-based; settings: filed as agonist
The threshold is 90%. Values of Emax beneath it are tagged Met; values meeting or exceeding it are tagged Not met.

The following compounds have reported results that may help.
INSERT INTO results (structurenotation, assaysystem, assignedlabel) VALUES
  ('CCCCCn1nc(C(=O)NC(C)(C)CO)c(N)c1C(C)(C)C', 'Cannabinoid receptor 1 (Homo sapiens)', 'Met'),
  ('CCCCCn1nc(C(=O)NC(C)(C)CO)cc1C(C)(C)C', 'Cannabinoid receptor 1 (Homo sapiens)', 'Not met'),
  ('CCCCCn1nc(C(=O)NC(C)(C)C)cc1C(C)(C)C', 'Cannabinoid receptor 1 (Homo sapiens)', 'Not met'),
  ('CCCCCCn1nc(C(=O)NC(C)(C)CO)cc1C(C)(C)C', 'Cannabinoid receptor 1 (Homo sapiens)', 'Not met'),
  ('CCCCCn1nc(C(=O)NC(C)(C)CO)c([N+](=O)[O-])c1C(C)(C)C', 'Cannabinoid receptor 1 (Homo sapiens)', 'Not met'),
  ('CCCCCn1nc(C(=O)N[C@@H](C(=O)OC)C(C)(C)C)cc1C(C)(C)C', 'Cannabinoid receptor 1 (Homo sapiens)', 'Not met'),
  ('CCCCCn1nc(C(=O)NC(C)(C)CO)cc1C(F)(F)F', 'Cannabinoid receptor 1 (Homo sapiens)', 'Met'),
  ('CCCCCn1nc(C(=O)N[C@H](C(=O)OC)C(C)C)cc1C(C)(C)C', 'Cannabinoid receptor 1 (Homo sapiens)', 'Met');

Query block: Does the reported Emax of the following compound sit strictly below 90%? "CC(C)(CO)NC(=O)c1cc(C(C)(C)C)n(CCCCF)n1"
Result block: Not met

Query block: State whether 90% exceeds Emax recorded for "CCCCCn1nc(C(=O)NC(C)(C)CO)c(Cl)c1C(C)(C)C" .
Result block: Met

* * *

molecular target: Cannabinoid receptor 1 (Homo sapiens, UniProt P21554); test: Agonist activity at human CB1 receptor expressing CHO cells co-expressing Galpha16 by calcium mobilization assay; assay type: functional, cell-based
Sequence (P21554 whole entry): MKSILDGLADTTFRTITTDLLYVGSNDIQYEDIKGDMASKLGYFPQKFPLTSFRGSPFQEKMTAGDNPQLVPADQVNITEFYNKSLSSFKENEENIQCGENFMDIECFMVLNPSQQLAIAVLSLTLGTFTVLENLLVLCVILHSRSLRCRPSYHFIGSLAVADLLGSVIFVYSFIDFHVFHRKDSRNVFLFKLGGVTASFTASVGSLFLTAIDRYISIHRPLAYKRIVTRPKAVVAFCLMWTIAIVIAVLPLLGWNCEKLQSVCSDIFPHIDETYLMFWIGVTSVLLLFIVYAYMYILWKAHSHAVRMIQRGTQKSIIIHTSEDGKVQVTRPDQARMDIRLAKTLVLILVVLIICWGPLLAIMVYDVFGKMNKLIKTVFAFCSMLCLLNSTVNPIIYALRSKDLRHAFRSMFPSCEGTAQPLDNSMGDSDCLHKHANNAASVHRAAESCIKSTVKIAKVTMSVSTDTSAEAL
Rule: measured EC50 below 5 µM gets yes; anything equal to or greater than 5 µM gets no.

The examples below pair each entry with its known result.
INSERT INTO results (structurenotation, assignedlabel) VALUES
  ('CCCCCn1nc(C(=O)Nc2ccc(Cl)cc2)cc1C(C)(C)C', 'no'),
  ('CCCCCn1nc(C(=O)NC2CCCCC2)cc1C(C)(C)C', 'yes'),
  ('CCCCCn1nc(C(=O)NC(C)(C)CO)cc1C(C)C', 'yes'),
  ('COc1ccc(-n2nc(C(=O)NC(C)(C)CO)cc2C(C)(C)C)cc1', 'no');

Query block: Confirm or reject: EC50 of "CC(C)(CO)NC(=O)c1cc(C(C)(C)C)n(CCCCF)n1" lies strictly below 5 µM
Result block: yes

Query block: # check: EC50 < 5 µM for "CCCCCn1nc(C(=O)N[C@@H](C(=O)OC)C(C)(C)C)cc1C(C)(C)C"
Result block: yes

Query block: Does "CC(C)(CO)NC(=O)c1cc(C(C)(C)C)n(-c2ccc(C(F)(F)F)cc2)n1" have EC50 strictly under 5 µM?
Result block: no

Query block: Find out if reported EC50 for "CCCCCn1nc(C(=O)NC(C)(C)CO)cc1C(F)(F)F" is less than 5 µM
Result block: yes

Query block: Criterion: EC50 strictly below 5 µM. Is it met by "CCCCn1nc(C(=O)NC(C)(C)CO)cc1C(C)(C)C" ?
Result block: yes

Query block: Given "CCCCCn1nc(C(C)(C)C)cc1C(=O)NC(C)(C)C" , is recorded EC50 strictly lower than 5 µM?
Result block: no

* * *

molecular target: Cannabinoid receptor 2 (Homo sapiens, UniProt P34972); assay: Agonist activity at human CB2 receptor expressing CHO cells co-expressing Galpha16 by calcium mobilization assay; assay type: functional, cell-based
Record form. Attribute: pEC50. Fill in for each entry.
Give bare numbers, as −log10 of the molar value.

# count of solved cases: 2
INSERT INTO measurements (structurenotation, assaysystem, quantitymeasured, measured) VALUES
  ('CCCCCn1nc(C(=O)NC(C)(C)CO)cc1C(C)(C)C', 'Cannabinoid receptor 2 (Homo sapiens, UniProt P34972)', 'pEC50', 8.54),
  ('CCCCCn1nc(C(=O)Nc2ccncc2)cc1C(C)(C)C', 'Cannabinoid receptor 2 (Homo sapiens, UniProt P34972)', 'pEC50', 6.93);

Let us move to another entry and its pEC50.
Query block: Fill in reported pEC50 for this entry: "CC(C)(CO)NC(=O)c1cc(C(C)(C)C)n(-c2ccc(OC(F)(F)F)cc2)n1"
Result block: 4.00

* * *

Would you mind telling me the reported Emax of each entry?
biological target: Cannabinoid receptor 2 (Homo sapiens); assay: Agonist activity at human CB2 receptor expressing CHO cells co-expressing Galpha16 by calcium mobilization assay relative to CP55940; assay type: functional, cell-based; conditions: filed as agonist

The following compounds have reported results that may help.
INSERT INTO measurements (structurenotation, quantitymeasured, measured) VALUES
  ('CCCCCCn1nc(C(=O)NC(C)(C)CO)cc1C(C)(C)C', 'Emax', '100%'),
  ('CCCCCn1nc(C(=O)NC(C)(C)CO)c(Cl)c1C(C)(C)C', 'Emax', '100%'),
  ('CCCCn1nc(C(=O)NC(C)(C)CO)cc1C(C)(C)C', 'Emax', '100%'),
  ('CC(C)(CO)NC(=O)c1cc(C(C)(C)C)n(-c2ccc(Cl)cn2)n1', 'Emax', '50%'),
  ('CCCCCn1nc(C(=O)NC(C)(C)CO)cc1C(F)(F)F', 'Emax', '80%');

Batch request: Emax for each of the following compounds.
1. CCCCCn1nc(C(=O)NC(C)(C)CO)cc1C(C)(C)C
2. CCCCCn1nc(C(=O)NC(C)(C)CO)c(N)c1C(C)(C)C

Result block:
1: 100%; 2: 100%

Please give Emax for each item listed below.
1. CCCCCn1nc(C(=O)N[C@H](C(=O)OC)C(C)C)cc1C(C)(C)C
2. CC(C)(CO)NC(=O)c1cc(C(C)(C)C)n(CCCF)n1

Result block:
100%
100%

Query block: For "CCCCCn1nc(C(=O)Nc2ccncc2)cc1C(C)(C)C" , write its Emax.
Result block: 60%

* * *

target: Cannabinoid receptor 1 (Homo sapiens, UniProt P21554); assay: Agonist activity at human CB1 receptor expressing CHO cells co-expressing Galpha16 by calcium mobilization assay; type: functional, cell-based
So I've got a bunch of compounds here, and I need their EC50 values.
One number for each entry, in µM.

Worked cases, EC50 given:
INSERT INTO measurements (structurenotation, quantitymeasured, measured) VALUES
  ('CCCCCn1nc(C(=O)N[C@@H](C(=O)OC)C(C)C)cc1C(C)(C)C', 'EC50', 0.0016),
  ('CC(C)(CO)NC(=O)c1cc(C(C)(C)C)n(-c2ccc(Cl)cc2)n1', 'EC50', 100),
  ('CCCCCn1nc(C(=O)NC(C)(C)CO)cc1-c1ccc(F)cc1F', 'EC50', 100),
  ('CC(C)(CO)NC(=O)c1cc(C(C)(C)C)n(CCCF)n1', 'EC50', 100),
  ('CCCCCn1nc(C(=O)NC(C)(C)CO)c([N+](=O)[O-])c1C(C)(C)C', 'EC50', 0.129);

Below are some compounds; for each one, tell me its EC50.
1. Cc1ccc(-n2nc(C(=O)NC(C)(C)CO)cc2C(C)(C)C)cc1
2. CCCCCn1nc(C(=O)NC(C)(C)C)cc1C(C)(C)C
3. CCCCCn1nc(C(C)(C)C)cc1C(=O)NC12CC3CC(CC(O)(C3)C1)C2

Result block:
1: 100; 2: 0.0072; 3: 100

Data origin, for the record: ChEMBL document CHEMBL4765487
